The reported measurements were obtained from ChEMBL document CHEMBL1909046.

# test.target: Sodium-dependent dopamine transporter (Homo sapiens)
# Sequence (Q01959 whole entry): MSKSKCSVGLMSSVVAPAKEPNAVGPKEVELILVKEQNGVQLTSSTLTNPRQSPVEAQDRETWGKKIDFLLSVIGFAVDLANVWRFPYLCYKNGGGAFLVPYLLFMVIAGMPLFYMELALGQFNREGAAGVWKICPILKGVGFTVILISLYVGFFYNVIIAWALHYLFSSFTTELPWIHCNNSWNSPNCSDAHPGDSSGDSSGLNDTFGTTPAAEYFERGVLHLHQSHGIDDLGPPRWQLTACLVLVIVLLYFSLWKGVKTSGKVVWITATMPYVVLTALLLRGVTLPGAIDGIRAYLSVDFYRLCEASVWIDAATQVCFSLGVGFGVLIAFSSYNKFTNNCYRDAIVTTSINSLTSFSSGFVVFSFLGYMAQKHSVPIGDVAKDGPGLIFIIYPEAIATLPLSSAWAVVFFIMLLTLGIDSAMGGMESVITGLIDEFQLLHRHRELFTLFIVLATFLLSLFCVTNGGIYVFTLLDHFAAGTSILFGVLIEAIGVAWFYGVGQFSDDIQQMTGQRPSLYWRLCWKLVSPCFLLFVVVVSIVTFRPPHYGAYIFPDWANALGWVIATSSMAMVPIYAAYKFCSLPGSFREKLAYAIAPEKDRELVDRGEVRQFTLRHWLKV
# method.notes: DRUGMATRIX: Dopamine Transporter radioligand binding (ligand: [125I] RTI-55)
# Type: cell membranes, CHO-K1, Membrane
# condition.summary: Not Active = under 50% inhibition at 10 µM; read-out: IC50
test.readout: IC50
A complete answer gives the number followed by the unit.

In [3]: df
Out[3]:
                                   compound  recorded_measurement
0  NC1=NC(=O)C(c2ccccc2)O1 (configuration not stated)              0.521 µM
1  CC/C(=C(\c1ccccc1)c1ccc(OCCN(C)C)cc1)c1ccccc1               1.84 µM
2  N[C@@H]1[C@H]2CN(c3nc4c(cc3F)c(=O)c(C(=O)O)cn4-c3ccc(F)cc3F)C[C@@H]12               62.2 µM
3  Cc1cc(C(C#N)c2ccc(Cl)cc2)c(Cl)cc1NC(=O)c1cc(I)cc(I)c1O (configuration not stated)                4.8 µM
4  Cc1oncc1C(=O)Nc1ccc(C(F)(F)F)cc1 [LEFLUNOMIDE]               2.88 µM
5  O=c1ncn2nc(Sc3ccc(F)cc3F)ccc2c1-c1c(Cl)cccc1Cl                8.1 µM

IC50 of CC(C)(C)NC(=O)[C@@H]1C[C@@H]2CCCC[C@@H]2CN1C[C@@H](O)[C@H](Cc1ccccc1)NC(=O)[C@H](CC(N)=O)NC(=O)c1ccc2ccccc2n1 , assay on Sodium-dependent dopamine transporter (Homo sapiens), is 35.1 µM

---

# test.target: Cytochrome P450 2D6 (Homo sapiens); further: in other assays of this panel Not Active means under 50% inhibition at 10 µM
# Sequence (P10635 whole entry): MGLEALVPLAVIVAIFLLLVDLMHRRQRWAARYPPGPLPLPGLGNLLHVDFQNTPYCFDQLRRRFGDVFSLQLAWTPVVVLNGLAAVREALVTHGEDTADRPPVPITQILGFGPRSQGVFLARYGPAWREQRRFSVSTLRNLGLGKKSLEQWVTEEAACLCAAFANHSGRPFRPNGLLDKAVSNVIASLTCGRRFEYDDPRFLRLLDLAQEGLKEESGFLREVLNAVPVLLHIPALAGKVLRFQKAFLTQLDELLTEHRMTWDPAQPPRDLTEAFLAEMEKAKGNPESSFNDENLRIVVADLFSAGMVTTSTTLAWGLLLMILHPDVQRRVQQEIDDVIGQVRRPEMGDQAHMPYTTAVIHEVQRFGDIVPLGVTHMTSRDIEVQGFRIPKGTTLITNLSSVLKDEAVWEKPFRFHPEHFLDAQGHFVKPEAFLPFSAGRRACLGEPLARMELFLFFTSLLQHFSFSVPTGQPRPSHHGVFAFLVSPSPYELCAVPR
# condition.summary: bti-tn-5b1-4
test.readout: Ki

Answered examples (5):
molecule	Ki
CC(C)(C)NC(=O)[C@@H]1C[C@@H]2CCCC[C@@H]2CN1C[C@@H](O)[C@H](Cc1ccccc1)NC(=O)[C@H](CC(N)=O)NC(=O)c1ccc2ccccc2n1	Not Active
CC1(C)O[C@@H]2C[C@H]3[C@@H]4CCC5=CC(=O)CC[C@]5(C)[C@@]4(F)[C@@H](O)C[C@]3(C)[C@]2(C(=O)CCl)O1 [HALCINONIDE]	Not Active
CC(O)CO (stereo unspecified)	Not Active
C[C@H](CS)C(=O)N1CCC[C@H]1C(=O)O	Not Active
c1ccc([C@H]2CN3CCSC3=N2)cc1	Not Active

Entry under test: Cc1cccc(N(C)C(=S)Oc2ccc3ccccc3c2)c1 [TOLNAFTATE] . Its Ki was Not Active

Entry CC[C@@]1(O)C[C@H](O[C@H]2C[C@H](N(C)C)[C@H](O[C@H]3C[C@H](O)[C@H](O[C@H]4CCC(=O)[C@H](C)O4)[C@H](C)O3)[C@H](C)O2)c2c(cc3c(c2O)C(=O)c2c(O)cccc2C3=O)[C@H]1C(=O)OC ; Ki = Not Active

Notebook: CCCC1O[C@@H]2C[C@H]3[C@@H]4CCC5=CC(=O)C=C[C@]5(C)[C@H]4[C@@H](O)C[C@]3(C)[C@]2(C(=O)CO)O1 (stereo partly specified) [BUDESONIDE] , Ki read as Not Active

So, Nc1ncn([C@@H]2O[C@H](CO)[C@@H](O)[C@H]2O)c(=O)n1 ? Its Ki was Not Active

// recorded Ki for Clc1cccc(Cl)c1NC1=NCCN1 : Not Active

molecule Cc1cc(C2CCCCC2)n(O)c(=O)c1 , Ki observed: Not Active
